Where do the numbers come from? From ChEMBL document CHEMBL3137667.

Test: Highest frequency of moderate liver toxicity observed during clinical trials, expressed as a percentage. [column '% BIOL' in source]
Details: human
Assignment: determine reported Hepatotoxicity (moderate) for the given compounds.
Only the number, expressed in %, is required.

[in] Report Hepatotoxicity (moderate) for CCOc1nc2cccc(C(=O)O)c2n1Cc1ccc(-c2ccccc2-c2nnn[nH]2)cc1 please.
[out] 2.4

[in] Fill blank: measured Hepatotoxicity (moderate) of the compound N[C@@H](C(=O)N[C@@H]1C(=O)N2C(C(=O)O)=C(Cl)CS[C@H]12)c1ccccc1 [CEFACLOR ANHYDROUS] is ____.
[out] 10.7

[in] Could you share which Hepatotoxicity (moderate) value was measured for O=C(O)CCc1nc(-c2ccccc2)c(-c2ccccc2)o1 ?
[out] 20

[in] Name the reported Hepatotoxicity (moderate) value associated with the compound COc1ccc2c(c1)N(C[C@H](C)CN(C)C)c1ccccc1S2
[out] 4.5

[in] Please look up its Hepatotoxicity (moderate): O=C(O)C(=O)O
[out] 0
